- Experimental details: gradient 5% acetonitrile 3 min, to 50% in 2 min, to 85% in 15 min, held 3 min, 100 µL/min
- Conditions: column: Zorbax Extend-C18 2.1 x 50 mm; eluents: water / acetonitrile, 0.1% formic acid
Assay endpoint: RP-LC retention time (s)

Compound | Uom | Result value
O=C(NCCc1csc(-c2cccs2)n1)C1CCN(C(=O)C2CCCC2)CC1 | s | 782
COc1ccc(-c2nc(-c3cccc(-c4ccnn4C)c3)no2)c(OC)c1 | s | 1030
O=S(=O)(NC1CCCCC1)c1ccc(-c2nnc(C3CCCC3)o2)o1 | s | 1020
Cc1nn(C)cc1S(=O)(=O)N(Cc1ccccc1)c1ccccc1 | s | 861

[a] COc1cc(OC)cc(C(=O)N2CCC3(CC2)N=C(c2ccccc2)NO3)c1
[b] COc1ccccc1-c1csc(-c2nnn(-c3cccc(Cl)c3)c2N)n1
API: POST /compare with a and b ; response names the item with higher RP-LC retention time. Which one? Tell me its label. b

[a] O=C(Nc1ncc(Cc2ccccc2Cl)s1)c1cc2ccccc2c(=O)o1
[b] OC1CCOC2(CCN(Cc3ccccc3OC(F)(F)F)CC2)C1 (stereo not drawn)
API: POST /compare with a and b ; response names the item with higher RP-LC retention time. Which one? Tell me its label. a
(a: 991 s, b: 602 s)

[1] Cc1ccc(CNC(=O)C2(C)CCCN(C(=O)Nc3cccc(Cl)c3)C2)cc1 (stereo not drawn)
[2] CCc1noc(NC(C)=O)c1-c1ccc(OC)c(S(=O)(=O)N2CCN(c3ncccn3)CC2)c1
API: POST /compare with 1 and 2 ; response names the item with higher RP-LC retention time. Which one? Tell me its label. 1

[I] O=C(Cn1cccc(-c2nc(-c3ccc(Br)cc3)no2)c1=O)Nc1ccc(F)cc1
[II] Cc1ccc(S(=O)(=O)N2CCC3(CC2)c2nccn2CCN3C)cc1F
API: POST /compare with I and II ; response names the item with higher RP-LC retention time. Which one? Tell me its label. I

[a] COc1ccc(-c2csc(NC(=O)CS(=O)(=O)c3ccc(Cl)cc3)n2)cc1C
[b] Cc1ccccc1C(=O)N1CCC2(CC1)NC(=O)c1cc(F)ccc1N2C
API: POST /compare with a and b ; response names the item with higher RP-LC retention time. Which one? Tell me its label. a
(a: 1080 s, b: 749 s)

[1] O=C(C1CCN(c2ncccc2-c2nc(-c3cccc(Cl)c3)no2)CC1)N1CCOCC1
[2] CCCCN(C)C(=O)Cn1c(CNC(=O)c2ccco2)nc2ccccc21
I would appreciate it if you could say which entry, 1 or 2 , has the lower RP-LC retention time value. Which one? Tell me its label. 2

[A] CN(C)c1cc(-n2cnc(C(=O)NCc3cccc(Cl)c3)c2)ncn1
[B] O=C(CCc1nc2ccccc2[nH]1)NCC1CCOCC1
I would appreciate it if you could say which entry, A or B , has the lower RP-LC retention time value. Which one? Tell me its label. B
(B: 555 s, A: 793 s)

[I] CCOc1ccc(CC(=O)N2CCN(c3ccc(-c4nc(C)cs4)cn3)CC2)cc1
[II] Cc1ccc(-c2nc3cnccn3c2NCCC(=O)NC2CC2)cc1
I would appreciate it if you could say which entry, I or II , has the lower RP-LC retention time value. Which one? Tell me its label. II

Attribution: the METLIN SMRT retention time set (Domingo-Almenara et al. 2019)
